- System: E21 (patient-derived glioblastoma stem cells of mesenchymal subtype)
- Test name: surviving fraction (nuclei count normalised to DMSO); higher = more cells surviving (less toxic)
- Experimental conditions: 37 nM; exposure time: 72 h
Recorded endpoint: surviving fraction

surviving fraction for E21 with input Nc1ccc(-c2ccc3ncc4ccc(=O)n(-c5cccc(C(F)(F)F)c5)c4c3c2)cn1 [Torin2] equals 0.924

Assay E21, sample CC(=O)CC(c1ccc([N+](=O)[O-])cc1)c1c(O)c2ccccc2oc1=O (centres undefined) [Acenocoumarol] , surviving fraction read: 0.897

Lab note: molecule C[C@]12CC[C@H](O)C[C@H]1CC[C@@H]1[C@@H]2C[C@@H](O)[C@]2(C)[C@@H](C3=CC(=O)OC3)CC[C@]12O [Digoxigenin] tested on E21; recorded surviving fraction was 0.891

NC(=O)c1cccc2cn(-c3ccc([C@@H]4CCCNC4)cc3)nc12 [Niraparib] tested on E21 gave surviving fraction: 0.882

---

- System: E13 (patient-derived glioblastoma stem cells of classical subtype)
- Test name: surviving fraction (nuclei count normalised to DMSO); higher = more cells surviving (less toxic)
- Experimental conditions: 3000 nM; exposure time: 72 h
Provide the reported surviving fraction of each item.
I'd appreciate a reply containing only the number, no unit.

// surviving fraction lookup, compound = `CC[n+]1c(/C=C/C=C2/N(C)c3ccccc3C2(C)C)sc2ccccc21` , result: 0.381

Sample `CC(=O)OC[C@H]1O[C@@H]([S-])[C@H](OC(C)=O)[C@@H](OC(C)=O)[C@@H]1OC(C)=O.CCP(CC)CC.[Au+]` ; surviving fraction observed: 0.227

`Nc1nc2n[nH]nc2c(=O)[nH]1` has a reported surviving fraction of 0.307

In plain terms, CCCCCC[C@H]1C(=O)O[C@H](C)[C@H](NC(=O)c2cccc(NC=O)c2O)C(=O)O[C@@H](C)[C@@H]1OC(=O)CC(C)C [Antimycin A] has a documented surviving fraction of 0.416

---

- Tested on: E34 (patient-derived glioblastoma stem cells of proneural subtype);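 also: cell Painting imaging in 384-well plates, CellProfiler features reduced to at least 20 principal components, Euclidean distance versus same-plate DMSO vehicle wells (0.1% v/v), median over six images per well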
- Test name: phenotypic distance (Euclidean, principal components) from DMSO controls (arbitrary units); higher = stronger morphological change
- Experimental conditions: 4.1 nM; exposure time: 72 h
Structures can show the parent of a compound that is named as a salt.
Recorded endpoint: phenotypic distance
Respond numerically, and do not add a unit to the figure.

# phenotypic distance (compound: CC(C)C(=O)OCC(=O)[C@@]12O[C@H](C3CCCCC3)O[C@@H]1C[C@H]1[C@@H]3CCC4=CC(=O)C=C[C@]4(C)[C@H]3[C@@H](O)C[C@@]12C [Ciclesonide] ) is 0.88

Lab note: measured phenotypic distance of `COc1cc(/C=C/C(=O)N2CCC=CC2=O)cc(OC)c1OC` was 1.26

Reported phenotypic distance for CCCCCC[C@H]1C(=O)O[C@H](C)[C@H](NC(=O)c2cccc(NC=O)c2O)C(=O)O[C@@H](C)[C@@H]1OC(=O)CC(C)C [Antimycin A] was 1.81

Per the records, this compound ( `COc1ccc(C(=O)CC(=O)c2ccc(C(C)(C)C)cc2)cc1` ) has phenotypic distance equal to 0.805

Record Cc1ncc(CO)c(CO)c1O [Pyridoxine hydrochloride] , field phenotypic distance: 1.15

---

- Test system: E57 (patient-derived glioblastoma stem cells of mesenchymal subtype)
- Test name: surviving fraction (nuclei count normalised to DMSO); higher = more cells surviving (less toxic)
- Experimental conditions: 3000 nM; exposure time: 72 h
Structures can show the parent of a compound that is named as a salt.
# thresholds on surviving fraction define classes: interval 1 = under 0.2, interval 2 = from 0.2 up to 0.9, interval 3 = 0.9 and over

Exam item: assign CC[C@H]1CN2CCc3cc(OC)c(OC)cc3[C@@H]2C[C@@H]1C[C@H]1NCCc2cc(OC)c(OC)cc21 [Emetine dihydrochloride hydrate] to the correct category. interval 1

Entry NC(=O)c1ccccc1 [Benzamide] belongs to which category? interval 3

Tag the class for `Cn1ncnc1[C@H]1c2n[nH]c(=O)c3cc(F)cc(c23)N[C@@H]1c1ccc(F)cc1` interval 2

# bin label for Clc1ccc(COC(Cn2ccnc2)c2ccc(Cl)cc2Cl)c(Cl)c1 (centres undefined) interval 2

Which category does the recorded surviving fraction put `Nc1ncn([C@@H]2O[C@H](CO)[C@@H](O)[C@H]2O)c(=O)n1` in? interval 2

Assign a bin to CC1(C(=O)O)C2CCC(O2)C1(C)C(=O)O (centres undefined) interval 3

# bin lookup: classify `CN[C@@H](C)C(=O)N[C@H](C(=O)N1CCC[C@H]1C(=O)N[C@H]1c2ccccc2C[C@H]1OCC#CC#CCO[C@@H]1Cc2ccccc2[C@@H]1NC(=O)[C@@H]1CCCN1C(=O)[C@@H](NC(=O)[C@H](C)NC)C1CCCCC1)C1CCCCC1` by its surviving fraction interval 2

Exam item: assign CCCCC1C(=O)N(c2ccccc2)N(c2ccc(O)cc2)C1=O (centres undefined) to the correct category. interval 3

// return the class label for `COC(=O)Nc1nc2cc(C(=O)c3ccccc3)ccc2[nH]1` interval 1

Class (by measured surviving fraction) for `NC(=O)c1cccc2cn(-c3ccc([C@@H]4CCCNC4)cc3)nc12` interval 2

# classify by surviving fraction band: `CC[C@@H]1C(=O)N(C)c2cnc(Nc3ccc(C(=O)N[C@H]4CC[C@H](N5CCN(CC6CC6)CC5)CC4)cc3OC)nc2N1C(C)C` interval 1

Form: Item = `COc1cc2c(cc1O)CC[C@@H]1[C@@H]2CC[C@]2(C)[C@@H](O)CC[C@@H]12` ; Class = ? interval 1

Any idea which band `C/C=C(\C)C(=O)N[C@@H](c1ccccc1)[C@@H](O)C(=O)O[C@H]1C[C@@]2(O)[C@@H](OC(=O)c3ccccc3)[C@@H]3[C@]4(OC(C)=O)CO[C@@H]4C[C@H](O)[C@@]3(C)C(=O)[C@H](OC(C)=O)C(=C1C)C2(C)C` is in? interval 1

Category of `CCCSc1ccc2[nH]c(NC(=O)OC)nc2c1` : interval 1

Hello team, could you let me know which band the following molecule falls into: CC(NCCC(c1ccccc1)c1ccccc1)c1ccccc1 (centres undefined) [Fendiline hydrochloride] interval 3
